Attribution: ChEMBL document CHEMBL5518215

Listed here: items and their measured MBC.
experiment: Antimicrobial activity against Salmonella pullorum C7913 assessed as bacterial killing measured after 16 hrs incubation; format: functional, Salmonella enterica subsp. enterica serovar Pullorum; settings: Salmonella enterica
endpoint: MBC (µM)

{"substance": "H-VKLWLKGGKLWLKGGKLWLKG-NH2", "endpoint": "MBC", "readout_value": 4}
{"substance": "H-GKLWLKGAKLWLKGGKLWLKG-NH2", "endpoint": "MBC", "readout_value": 2}
{"substance": "H-GKLWLKGFKLWLKGGKLWLKG-NH2", "endpoint": "MBC", "readout_value": 2}
